system tested: T1, human VPAC1 receptor (human, UniProt P32241 31-457)
T1 sequence (looked up): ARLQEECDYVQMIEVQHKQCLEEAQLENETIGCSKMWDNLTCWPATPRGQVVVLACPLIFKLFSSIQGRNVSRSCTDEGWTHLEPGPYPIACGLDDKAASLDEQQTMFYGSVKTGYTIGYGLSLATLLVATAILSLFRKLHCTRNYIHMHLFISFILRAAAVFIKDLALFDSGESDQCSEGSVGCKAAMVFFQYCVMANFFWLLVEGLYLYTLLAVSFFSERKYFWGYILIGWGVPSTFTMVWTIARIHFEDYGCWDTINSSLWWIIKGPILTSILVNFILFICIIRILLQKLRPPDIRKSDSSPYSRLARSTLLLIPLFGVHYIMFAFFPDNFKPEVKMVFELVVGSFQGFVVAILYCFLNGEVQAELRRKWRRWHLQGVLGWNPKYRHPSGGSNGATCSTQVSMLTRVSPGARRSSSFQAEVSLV
protocol text: cell-based or functional assay
Where no end group is shown, it is not given here. [ ]: non-standard residue; d: D form.
value type: EC50 cAMP, DiscoveRx (µM)
Give bare numbers, in µM.

Sample records with EC50 cAMP, DiscoveRx:
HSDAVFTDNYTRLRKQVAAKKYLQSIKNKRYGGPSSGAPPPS [P6]; 0.005
HSDAYFTDNYTRLRKQVAAKKYLQSIKNKRYGGPSSGAPPPS [P70]; 0.0274
HSDAVLTDNYTRLRKQVAAKKYLQSIKNKRYGGPSSGAPPPS [P64]; 0.221
HPDAVFTDNYTRLRKQVAAKKYLQSIKNKRYGGPSSGAPPPS [P49]; 0.0228
HSDAVFTDNWTRLRKQVAAKKYLQSIKNKRYGGPSSGAPPPS [P27]; 0.0052

Batch: EC50 cAMP, DiscoveRx for all items listed.
1. HSDAWFTDNYTRLRKQVAAKKYLQSIKNKRYGGPSSGAPPPS [P69]
2. HSDATFTDNYTRLRKQVAAKKYLQSIKNKRYGGPSSGAPPPS [P62]
3. H[dS]DAVFTDNYTRLRKQVAAKKYLQSIKNKRYGGPSSGAPPPS [P48]
4. HSDAVFTDNYTRLRKQVAARKYLQSIKNKRYGGPSSGAPPPS [P20]

1. 0.00848
2. 0.017
3. 0.00993
4. 0.002
